SYSTEM_UNDER_TEST: T1, Recombinant human CypA (human, UniProt P62937 1-165, Monolith RED-NHS 2nd generation fluorescent label, in the MST experiments only)
T1 construct: extra N-terminal gly residue left after TEV cleavage; cyclophilin A (CypA), human; Unlabeled in SEC and SPR, labeled in MST; also called cyclophilin A; labeled CypA; source: E. coli BL21 λDE3, purified (Ni-NTA, TEV cleavage, second Ni-NTA); not shown: His6, N-terminal, cleaved
ASSAY_COMMENT: SPR; Tat immobilised on a CM5S chip by amine coupling (~11000 RU); CypA or equimolecular CypA/CA mix at 370-6000 nM, one cycle kinetic titration, or CA at 2 µM; 25°C, 20 mM phosphate, 30 mM citrate, pH 7, 150 mM NaCl, 0.05% P20; two state fitting model
CONDITION_SET: both partners purified
MEASURE: pKd
Give bare numbers, as −log10 of the molar value.

Looking for the measured pKd of Recombinant Tat (86 residues, BH10 isolate) (natural protein, HIV-1 Tat, BH10 isolate, 86 residues; source: E. coli, purified (as Vendeville et al., 2004); lyophilized) MEPVDPRLEPWKHPGSQPKTACTNCYCKKCCFHCQVCFITKALGISYGRKKRRQRRRPPQGSQTHQVSLSKQPTSQSRGDPTGPKE , can you help?
6.59
